# measurement-description: in vitro
# condition-details: human, % of cell viability compared to control, 1. measurement, HepG2, 5 µM
viability at 5 µM strictly less than 70% = true (1). Otherwise false (0).

Problem: For the compound COc1ccc2cc3[n+](cc2c1OCc1ccccc1C)CCc1cc2c(cc1-3)OCO2 [16b, 9-O-(2-methylbenzyl)berberine chloride] , is viability at 5 µM under 70%?
false (0)

Problem: For the compound COc1ccc2cc3[n+](cc2c1OCc1ccc(Cl)cc1)CCc1cc2c(cc1-3)OCO2 [16i, 9-O-(4-chlorbenzyl)berberine chloride] , is viability at 5 µM under 70%?
false (0)

Problem: For the compound COc1ccc2cc3[n+](cc2c1OCc1cccc(Cl)c1)CCc1cc2c(cc1-3)OCO2 [16h, 9-O-(3-chlorbenzyl)berberine chloride] , is viability at 5 µM under 70%?
true (1)

Problem: For the compound COc1ccc2cc3[n+](cc2c1OCc1ccccc1Br)CCc1cc2c(cc1-3)OCO2 [16e, 9-O-(2-brombenzyl)berberine chloride] , is viability at 5 µM under 70%?
true (1)

Problem: For the compound COc1ccc2cc3[n+](cc2c1OCc1cccc(C)c1)CCc1cc2c(cc1-3)OCO2 [16c, 9-O-(3-methylbenzyl)berberine chloride] , is viability at 5 µM under 70%?
false (0)

Problem: For the compound COc1ccc2cc3[n+](cc2c1OCc1ccc(Cl)c(Cl)c1)CCc1cc2c(cc1-3)OCO2 [16k] , is viability at 5 µM under 70%?
true (1)

Problem: For the compound COc1ccc2cc3[n+](cc2c1OCc1ccccc1)CCc1cc2c(cc1-3)OCO2 [16a, 9-O-benzylberberine chloride] , is viability at 5 µM under 70%?
false (0)

---

# measurement-description: in vitro
# condition-details: human, % of cell viability compared to control, 3. measurement, HepG2, 10 µM
assay-readout: viability at 10 µM (%)
Give the value, in units of %, as a plain number.

Query: viability at 10 µM; subject: COc1ccc2cc3[n+](cc2c1OCc1cccc(Cl)c1)CCc1cc2c(cc1-3)OCO2 [16h, 9-O-(3-chlorbenzyl)berberine chloride]
47.8

Query: viability at 10 µM; subject: COc1ccc2cc3[n+](cc2c1OCc1ccccc1C)CCc1cc2c(cc1-3)OCO2 [16b, 9-O-(2-methylbenzyl)berberine chloride]
76.5

Query: viability at 10 µM; subject: COc1ccc2cc3[n+](cc2c1OCc1cccc(Br)c1)CCc1cc2c(cc1-3)OCO2 [16f, 9-O-(3-brombenzyl)berberine chloride]
49.4

Query: viability at 10 µM; subject: COc1ccc2cc3[n+](cc2c1OCc1ccccc1)CCc1cc2c(cc1-3)OCO2 [16a, 9-O-benzylberberine chloride]
60.7

Query: viability at 10 µM; subject: COc1ccc2cc3[n+](cc2c1OCc1ccccc1Br)CCc1cc2c(cc1-3)OCO2 [16e, 9-O-(2-brombenzyl)berberine chloride]
53.7

Query: viability at 10 µM; subject: COc1ccc2cc3[n+](cc2c1OCc1ccc(C)cc1)CCc1cc2c(cc1-3)OCO2 [16d, 9-O-(4-methylbenzyl)berberine chloride]
52

Query: viability at 10 µM; subject: COc1ccc2cc3[n+](cc2c1OCc1cccc(C)c1)CCc1cc2c(cc1-3)OCO2 [16c, 9-O-(3-methylbenzyl)berberine chloride]
64.9

Query: viability at 10 µM; subject: COc1ccc2cc3[n+](cc2c1OCc1ccc(Cl)cc1)CCc1cc2c(cc1-3)OCO2 [16i, 9-O-(4-chlorbenzyl)berberine chloride]
61.1

Query: viability at 10 µM; subject: COc1ccc2cc3[n+](cc2c1OCc1ccc(Br)cc1)CCc1cc2c(cc1-3)OCO2 [16g, 9-O-(4-brombenzyl)berberine chloride]
56.6

Query: viability at 10 µM; subject: COc1ccc2cc3[n+](cc2c1OCc1ccc(Cl)c(Cl)c1)CCc1cc2c(cc1-3)OCO2 [16k]
46.9
